target: human PAH with the R408W mutation (Homo sapiens, UniProt P00439, R408W); construct: expressed in transfected cells; test: Cell Based Phenylalanine Flux Assay; conditions: A375 cells expressing human R408W PAH; 24 hrs compound incubation; 13C-Tyrosine by LC-MS; average where tested multiple times; read-out: AC50;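 further: Ten-point dose curve from 2-fold serial dilutions, run in duplicate at 0.5% DMSO final, tracer step used 20 µM sepiapterin and 800 µM labeled phenylalanine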
Sequence (P00439 whole entry R408W): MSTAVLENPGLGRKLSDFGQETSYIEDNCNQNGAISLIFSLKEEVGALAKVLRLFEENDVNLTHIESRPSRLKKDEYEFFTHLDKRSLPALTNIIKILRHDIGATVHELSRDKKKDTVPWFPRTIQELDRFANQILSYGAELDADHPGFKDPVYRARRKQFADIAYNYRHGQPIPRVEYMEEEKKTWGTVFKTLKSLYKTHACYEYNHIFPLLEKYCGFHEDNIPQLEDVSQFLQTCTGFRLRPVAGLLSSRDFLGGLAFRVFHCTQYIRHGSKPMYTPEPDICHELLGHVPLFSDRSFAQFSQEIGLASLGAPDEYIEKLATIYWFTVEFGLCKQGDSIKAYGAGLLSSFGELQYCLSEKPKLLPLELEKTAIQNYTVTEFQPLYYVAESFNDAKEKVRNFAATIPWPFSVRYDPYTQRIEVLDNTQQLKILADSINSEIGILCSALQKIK
readout_type: AC50

Cc1c(-c2nnc(C(=O)N3CCc4[nH]cnc4[C@H]3c3cc4cccc(C(F)(F)F)n4n3)o2)cnn1C: 0.5 to 1 µM
O=C(c1nnc(-c2ccncn2)o1)N1CCc2[nH]cnc2[C@H]1c1cc2c(F)cccn2n1: 0.5 to 1 µM

# context switch: different compound, same AC50
Query C[C@@H](O)c1nc(C(F)F)c(C(=O)N2CCc3[nH]cnc3[C@@H]2c2cc3ccccn3n2)o1 yields AC50 of > 5 µM
